Where do the numbers come from? From paper PMC9327782.

molecular target: VEGFR-2 (Homo sapiens, UniProt P35968); construct: purchased; assay: In vitro VEGFR-2 kinase assay (ELISA kit); assay type: biochemical; conditions: supplement raw data, curve fit
Sequence (P35968 20-1356): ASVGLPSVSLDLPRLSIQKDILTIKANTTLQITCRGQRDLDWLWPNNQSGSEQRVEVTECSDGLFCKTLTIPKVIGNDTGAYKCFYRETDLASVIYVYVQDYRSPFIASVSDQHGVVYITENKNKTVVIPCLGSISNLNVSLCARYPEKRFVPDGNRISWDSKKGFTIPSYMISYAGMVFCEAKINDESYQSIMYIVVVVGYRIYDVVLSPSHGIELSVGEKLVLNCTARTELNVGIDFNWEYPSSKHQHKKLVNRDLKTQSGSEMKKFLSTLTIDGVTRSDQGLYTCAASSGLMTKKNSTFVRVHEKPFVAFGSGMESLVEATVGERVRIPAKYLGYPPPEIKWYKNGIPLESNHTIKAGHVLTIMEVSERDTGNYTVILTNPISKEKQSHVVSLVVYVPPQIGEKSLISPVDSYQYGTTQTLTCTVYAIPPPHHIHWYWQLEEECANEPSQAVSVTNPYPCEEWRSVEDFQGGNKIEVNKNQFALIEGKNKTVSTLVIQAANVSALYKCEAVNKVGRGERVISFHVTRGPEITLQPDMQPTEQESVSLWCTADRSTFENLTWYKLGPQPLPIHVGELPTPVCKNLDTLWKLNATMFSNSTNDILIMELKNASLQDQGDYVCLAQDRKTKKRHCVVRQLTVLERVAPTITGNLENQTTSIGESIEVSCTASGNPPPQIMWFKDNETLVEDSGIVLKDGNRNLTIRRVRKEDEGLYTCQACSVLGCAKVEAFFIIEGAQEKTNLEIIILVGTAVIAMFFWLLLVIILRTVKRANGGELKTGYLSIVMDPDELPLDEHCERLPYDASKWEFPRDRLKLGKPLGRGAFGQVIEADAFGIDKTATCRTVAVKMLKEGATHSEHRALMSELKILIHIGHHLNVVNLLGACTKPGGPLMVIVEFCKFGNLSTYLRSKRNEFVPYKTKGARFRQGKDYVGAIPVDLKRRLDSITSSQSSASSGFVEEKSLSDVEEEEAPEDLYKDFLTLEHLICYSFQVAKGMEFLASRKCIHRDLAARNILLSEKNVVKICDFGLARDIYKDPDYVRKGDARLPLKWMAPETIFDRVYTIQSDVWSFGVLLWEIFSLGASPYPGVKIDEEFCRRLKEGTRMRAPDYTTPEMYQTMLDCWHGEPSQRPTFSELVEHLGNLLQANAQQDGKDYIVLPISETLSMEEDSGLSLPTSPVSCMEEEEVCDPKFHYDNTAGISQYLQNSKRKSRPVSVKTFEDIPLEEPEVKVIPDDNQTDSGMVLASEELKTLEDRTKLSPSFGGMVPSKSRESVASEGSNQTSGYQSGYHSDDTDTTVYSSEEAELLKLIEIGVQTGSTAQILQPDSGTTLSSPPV
Quantity name: HillSlope best-fit value, VEGFR-2

Check out these entries, answers already filled in.
CC(C)(C)NC(=O)c1ccc(NC(=O)CSc2nc3ccccc3o2)cc1 [Compound 12d] : -0.4166
COc1cccc(NC(=O)c2ccc(NC(=O)CSc3nc4cc(C)ccc4o3)cc2)c1 [Compound 12i] : -0.3818
Cc1ccc2oc(SCC(=O)Nc3ccc(C(=O)Nc4cccc(Cl)c4)cc3)nc2c1 [Compound 12l] : -0.4614

a: Cc1ccc2oc(SCC(=O)Nc3ccc(C(=O)NC(C)(C)C)cc3)nc2c1 [Compound 12f]
b: O=C(CSc1nc2ccccc2o1)Nc1ccc(C(=O)NNC(=O)c2cccc(Cl)c2)cc1 [Compound 13a]
Lab note: record which item had the higher HillSlope best-fit value, VEGFR-2, a or b . Write down the label attached to your selection.
a
(a: -0.3283, b: -0.5089)

---

system: HepG2 cell line; assay: In vitro anti-proliferative MTT assay, HepG2; type: cell-based, human; conditions: Homo sapiens, HepG2, supplement raw data, dose-response curve fit; read-out: LogIC50 best-fit value, HepG2 (converted)
Quantity name: IC50 (µM)

Below are worked cases with known answers.
O=C(CSc1nc2ccccc2o1)Nc1ccc(C(=O)NNC(=O)c2cccc(Cl)c2)cc1 [Compound 13a] : 25.5
Cc1ccc2oc(SCC(=O)Nc3ccc(C(=O)Nc4cccc(Cl)c4)cc3)nc2c1 [Compound 12l] : 10.5
O=C(CSc1nc2ccccc2o1)Nc1ccc(C(=O)Nc2cccc(Cl)c2)cc1 [Compound 12j] : 50.9
O=C(CSc1nc2ccccc2o1)Nc1ccc(C(=O)NC2CCCC2)cc1 [Compound 12a] : 38.8

A: COc1cccc(NC(=O)c2ccc(NC(=O)CSc3nc4ccccc4o3)cc2)c1 [Compound 12g]
B: CC(C)(C)NC(=O)c1ccc(NC(=O)CSc2nc3cc(Cl)ccc3o2)cc1 [Compound 12e]
When the recorded IC50 values are compared, which is smaller: that of A or that of B ? Your answer should be the label of the entry you select.
A

1: Cc1ccc2oc(SCC(=O)Nc3ccc(C(=O)NNC(=O)c4cccc(Cl)c4)cc3)nc2c1 [Compound 13c]
2: COc1cccc(NC(=O)c2ccc(NC(=O)CSc3nc4cc(Cl)ccc4o3)cc2)c1 [Compound 12h]
Which has the higher IC50, 1 or 2 ? Return value: the label identifying the chosen record.
2
(2: 102 µM, 1: 24.4 µM)

---

Test system: HepG2 cell line
Assay: In vitro anti-proliferative MTT assay, HepG2
Type: cell-based, human
Settings: Homo sapiens, HepG2, supplement raw data, dose-response curve fit; read-out: LogIC50 best-fit value, HepG2 (converted)
Protocol: The cytotoxicity results were obtained as median growth inhibitory concentration (IC50). MTT assay protocol. This method was applied in accordance with the comprehensive description in Supplementary data. […] concentration of the synthesized compounds and incubated for 24 h. […] The colorimetric assay was measured and recorded at absorbance of 570 nm using a plate reader (EXL 800, USA). The relative cell viability in percentage was calculated as (A570 of treated samples/A570 of untreated sample) X 100. […]
Quantity name: IC50 (µM)

CNC(=O)c1cc(Oc2ccc(NC(=O)Nc3ccc(Cl)c(C(F)(F)F)c3)cc2)ccn1 [Sorafenib, sorafenib, reference compound] : 5.57
COc1cccc(NC(=O)c2ccc(NC(=O)CSc3nc4cc(C)ccc4o3)cc2)c1 [Compound 12i] : 27.3
CC(C)(C)NC(=O)c1ccc(NC(=O)CSc2nc3ccccc3o2)cc1 [Compound 12d] : 23.6
O=C(CSc1nc2cc(Cl)ccc2o1)Nc1ccc(C(=O)Nc2cccc(Cl)c2)cc1 [Compound 12k] : 28.4
O=C(CSc1nc2cc(Cl)ccc2o1)Nc1ccc(C(=O)NNC(=O)c2cccc(Cl)c2)cc1 [Compound 13b] : 42.1
Cc1ccc2oc(SCC(=O)Nc3ccc(C(=O)NC4CCCC4)cc3)nc2c1 [Compound 12c] : 74.3

P: O=C(CSc1nc2cc(Cl)ccc2o1)Nc1ccc(C(=O)NC2CCCC2)cc1 [Compound 12b]
Q: Cc1ccc2oc(SCC(=O)Nc3ccc(C(=O)NC(C)(C)C)cc3)nc2c1 [Compound 12f]
// which entry reports the smaller IC50, P or Q ? Respond using the label that marks the chosen record.
Q
